Each entry below lists one item and its recorded DC50 value.
study.system: ER (Homo sapiens, UniProt P03372)
Construct: host or cells: T47D and MCF7 human breast cancer cells
assay.method.text: ER degradation activity, in-cell western blot analysis in T47D cells
Format: cell-based
condition.notes: 16 hours, Table A does not say which cell line (T47D or MCF7), read-out: Potency (DC50)
reported.endpoint: DC50

>>> measured("C[C@@H]1Cc2c([nH]c3ccccc23)[C@@H](c2c(F)cc(N3CC[C@@H](CN4CCC(C(=O)N5Cc6cc7c(cc6C5)C(=O)N(C5CCC(=O)NC5=O)C7)CC4)C3)cc2F)N1CC(F)F (some centres unmarked)")
"< 0.01 µM"
>>> measured("O=C1CCC(N2C(=O)c3cc4c(cc3C2=O)CN(C(=O)[C@H]2CC[C@H](CN3CC(Nc5ccc([C@@H]6c7ccc(O)cc7CC[C@@H]6c6ccccc6)cc5)C3)CC2)C4)C(=O)N1 (some centres unmarked)")
"< 0.01 µM"
>>> measured("C[C@@H]1Cc2c([nH]c3ccccc23)[C@@H](c2c(F)cc(N3CCC(CN4CCC(N5Cc6cc7c(cc6C5)C(=O)N(C5CCC(=O)NC5=O)C7=O)CC4)CC3)cc2F)N1CC(F)F (some centres unmarked) [E 251]")
"< 0.01 µM"
>>> measured("O=C1CCC(N2C(=O)c3cc4c(cc3C2=O)CN(CC(=O)N2CCC3(CC2)CCN(c2ccc(C(=C(CCCl)c5ccc(F)cc5)c5ccc(O)cc5)cc2)CC3)C4)C(=O)N1 (centres unmarked)")
"0.01 to 0.1 µM"
>>> measured("C[C@@H]1Cc2c([nH]c3ccccc23)[C@@H](c2ccc(N3CCC(CN4CCC(N5Cc6cc7c(cc6C5)C(=O)N(C5CCC(=O)NC5=O)C7=O)CC4)CC3)cc2)N1CC(F)F (some centres unmarked)")
"0.01 to 0.1 µM"

----------
study.system: ER (Homo sapiens)
Construct: host or cells: T47D and MCF7 human breast cancer cells
assay.method.text: ER degradation activity, in-cell western blot analysis in T47D cells
Type: cell-based
condition.notes: 16 hours, Table A does not say which cell line (T47D or MCF7), read-out: Potency (DC50)
reported.endpoint: DC50

>>> measured("O=C1CCC(N2C(=O)c3cc4c(cc3C2=O)CCN(CC(=O)N2CC3(CCN(c5ccc([C@@H]6c7ccc(O)cc7CC[C@@H]6c6ccc(F)cc6)cc5)CC3)C2)CC4)C(=O)N1 (stereo partly shown)")
"> 100 nM"
>>> measured("C[C@@H]1Cc2cc(O)ccc2C(c2ccc(N3CCC(C(=O)N4CCC(N5Cc6cc7c(cc6C5)C(=O)N(C5CCC(=O)NC5=O)C7=O)CC4)CC3)cn2)N1CC(F)F (stereo partly shown)")
"> 100 nM"
>>> measured("C[C@@H]1Cc2c([nH]c3ccccc23)[C@@H](c2c(F)cc(C3CCN(C(=O)C4CCC(N5Cc6cc7c(cc6C5)C(=O)N(C5CCC(=O)NC5=O)C7=O)CC4)CC3)cc2F)N1CC(F)F (stereo partly shown)")
"10 to 100 nM"
>>> measured("O=C1CCC(N2C(=O)c3cc4c(cc3C2=O)CN(C(=O)c2ccc(CC(=O)N3CCCC(Oc5ccc([C@@H]6c7ccc(O)cc7CC[C@@H]6c6ccccc6)cc5)C3)cc2)C4)C(=O)N1 (mixture of isomers)")
"10 to 100 nM"
>>> measured("C[C@@H]1Cc2c([nH]c3ccccc23)[C@@H](c2c(F)cc(N3CCC(N4CCN(C(=O)CN5Cc6cc7c(cc6C5)C(=O)N(C5CCC(=O)NC5=O)C7=O)CC4)CC3)cc2F)N1CC(F)F (stereo partly shown)")
"< 10 nM"
>>> measured("O=C1CCC(N2C(=O)c3cc4c(cc3C2=O)CN(C(=O)C2CCN(C3CCN(c5ccc([C@@H]6c7ccc(O)cc7CC[C@@H]6c6ccc(F)cc6)cc5)CC3)CC2)C4)C(=O)N1 (mixture of isomers)")
"< 10 nM"
>>> measured("O=C1CCC(N2Cc3cc4c(cc3C2=O)CN(C(=O)[C@H]2CC[C@H](N3CC(Nc5ccc([C@@H]6c7ccc(O)cc7CC[C@@H]6c6ccccc6)cc5)C3)CC2)C4)C(=O)N1 (single isomer, unassigned)")
"< 10 nM"
>>> measured("O=C1CCC(N2C(=O)c3cc4c(cc3C2=O)CN(Cc2ccc(N3CC(Oc5ccc([C@@H]6c7ccc(O)cc7CC[C@@H]6c6ccccc6)cc5)C3)nc2)C4)C(=O)N1 (stereo partly shown)")
"10 to 100 nM"
>>> measured("O=C1CCC(N2C(=O)c3cc4c(cc3C2=O)CN(CC2CN(CC3CCN(c5ccc([C@@H]6c7ccc(O)cc7CC[C@@H]6c6ccc(F)cc6)cc5)CC3)C2)C4)C(=O)N1 (stereo partly shown)")
"> 100 nM"
>>> measured("O=C1CCC(N2C(=O)c3cc4c(cc3C2=O)CN(CC(=O)N2CCC3(CC2)CC(Oc2ccc([C@@H]5c6ccc(O)cc6CC[C@@H]5c5ccccc5)cc2)C3)C4)C(=O)N1 (stereo partly shown)")
"> 100 nM"
